# MEASURED TARGET: Serine/threonine-protein kinase Nek2 (Homo sapiens) (UniProt P51955);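 also: mean inhibition value from the GSK PKIS kinase screening panel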
# Sequence (P51955 whole entry): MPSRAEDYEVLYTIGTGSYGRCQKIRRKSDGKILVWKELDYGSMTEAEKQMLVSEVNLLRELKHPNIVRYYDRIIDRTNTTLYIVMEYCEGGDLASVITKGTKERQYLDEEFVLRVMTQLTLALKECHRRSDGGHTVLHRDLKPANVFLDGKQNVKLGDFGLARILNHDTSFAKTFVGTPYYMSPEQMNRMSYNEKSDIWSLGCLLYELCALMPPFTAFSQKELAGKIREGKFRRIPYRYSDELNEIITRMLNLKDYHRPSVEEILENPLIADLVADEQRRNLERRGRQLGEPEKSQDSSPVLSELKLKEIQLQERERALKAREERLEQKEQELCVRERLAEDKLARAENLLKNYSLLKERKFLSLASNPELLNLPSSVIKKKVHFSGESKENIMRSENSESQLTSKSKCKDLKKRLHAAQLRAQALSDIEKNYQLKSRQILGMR
# CONDITIONS USED: at 0.1 µM
Entries and their inhibition values follow.
Output spec: scalar in %, unitless text.

COc1cc(Nc2ncc3c(C)nc(-c4cccc(C(F)(F)F)c4)n3n2)cc(OC)c1OC; 7.77

Ask | Returns the measured inhibition for the input compound. Input: "CCc1ccc(Oc2nccc(-c3c(-c4ccc(F)cc4)ncn3C3CCNCC3)n2)cc1"
Reply | 4.75

Ask | Query: inhibition; subject: "CCC(=O)Nc1ccc(C)c(-c2ccc(C(=O)NCC3CC3)cc2)c1"
Reply | 4.55

====

inhibition values, listed per item
# MEASURED TARGET: Protein kinase C eta type (Homo sapiens) (UniProt P24723);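 also: values are the mean percent inhibition of PKC-eta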
# Sequence (P24723 whole entry): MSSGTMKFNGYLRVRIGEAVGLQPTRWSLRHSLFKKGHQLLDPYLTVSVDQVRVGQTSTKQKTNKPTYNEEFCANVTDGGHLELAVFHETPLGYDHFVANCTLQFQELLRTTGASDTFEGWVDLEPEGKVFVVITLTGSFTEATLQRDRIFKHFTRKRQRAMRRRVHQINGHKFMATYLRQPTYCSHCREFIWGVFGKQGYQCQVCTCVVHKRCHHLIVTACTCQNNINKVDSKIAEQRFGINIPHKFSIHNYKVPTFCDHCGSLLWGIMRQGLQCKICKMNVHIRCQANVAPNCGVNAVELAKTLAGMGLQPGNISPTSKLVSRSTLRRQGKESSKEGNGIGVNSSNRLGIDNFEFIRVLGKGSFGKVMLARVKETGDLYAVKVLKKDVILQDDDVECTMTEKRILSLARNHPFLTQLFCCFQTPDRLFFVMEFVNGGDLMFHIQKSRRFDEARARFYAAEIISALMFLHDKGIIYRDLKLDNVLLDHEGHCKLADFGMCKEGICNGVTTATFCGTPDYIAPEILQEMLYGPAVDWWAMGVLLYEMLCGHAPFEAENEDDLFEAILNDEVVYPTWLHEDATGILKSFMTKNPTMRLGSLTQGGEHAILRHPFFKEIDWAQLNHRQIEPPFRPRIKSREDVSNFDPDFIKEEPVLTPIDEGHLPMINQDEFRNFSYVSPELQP
# CONDITIONS USED: at 0.1 µM
Numeric only. Scale: %

Cc1ccc(NC(=O)c2ccoc2)cc1-c1ccc(C(=O)NCC2CC2)cc1; 4.75
COc1ccc(-c2ccc3c(NC(=O)C4CC4)n[nH]c3n2)cc1; 1.15
COc1ccc2cc(-c3c(-c4ccncc4)nc(-c4ccc([S+](C)[O-])cc4C)n3C)ccc2c1 (configuration not stated); 0.16
NS(=O)(=O)c1ccc(N/N=C2\C(=O)Nc3ccc(C(=O)NCCCn4ccnc4)cc32)cc1; 3.58

Ask | Record request: inhibition value, item "O=C(Nc1n[nH]c2nc(-c3ccc(O)cc3)c(Br)cc12)C1CC1"
Reply | 6.81

====

# MEASURED TARGET: Calcium/calmodulin-dependent protein kinase type 1D (Homo sapiens);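 also: reported figure is the mean inhibition of CAMK1D, from the GSK PKIS screening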
# CONDITIONS USED: at 0.1 µM
EXPERIMENTAL ENDPOINT: inhibition (%)
Give a bare numeral; the unit % is implied.

CN(c1ccc(NC(=O)Nc2c(Cl)cccc2Cl)cc1)c1ccnc(Nc2cccc(CS(C)(=O)=O)c2)n1; 1.34
O=C(Nc1n[nH]c2cc(-c3ccccc3)ccc12)C1CC1; 0.34
Fc1ccc(-c2ncn(C3CCNCC3)c2-c2ccnc(Oc3ccc(F)c(F)c3)n2)cc1; -1.15
COc1ccc(-c2ccc3c(NC(=O)C4CC4)n[nH]c3n2)cc1; -0.49
NC(=O)c1cc(-c2ccncc2)cc(-c2ccccc2)c1N; 0.15
O=C(Nc1n[nH]c2cc(-c3cc(F)ccc3F)ccc12)C1CC1; -0.34

Ask | Fill blank: measured inhibition of the molecule "CCS(=O)(=O)c1ccc(OC)c(Nc2ncc(-c3cccc(-c4ccccc4F)c3)o2)c1" is ____.
Reply | 0.44

Ask | Fill in: inhibition of "O=C1Nc2ccc(I)cc2C1=Cc1cc(Br)c(O)c(Br)c1" is ___
Reply | 1.27

Ask | Look up inhibition for this molecule: "CN1CCN(CCCNc2nc3ccc(Oc4ccc(NC(=O)Nc5cc(C(F)(F)F)ccc5F)cc4)cc3[nH]2)CC1"
Reply | 2.28

Ask | Consider the molecule shown here: "Fc1ccc(-c2ncn(C3CCNCC3)c2-c2ccnc(Oc3ccc(Oc4ccccc4)cc3)n2)cc1" What is its recorded inhibition?
Reply | -0.26

Ask | Consider the molecule shown here: "COc1ccc(C2=C(N3CCc4ccccc43)C(=O)NC2=O)cc1" What is its recorded inhibition?
Reply | 0.57

Ask | Sample "CS(=O)(=O)CCNCc1cc(-c2cc3c(Nc4ccc(OCc5cccc(F)c5)c(Cl)c4)ncnc3s2)cs1" — what was its inhibition?
Reply | 0.48

Ask | Find the recorded inhibition belonging to "CN(C)c1ccc2c(c1)/C(=C/Nc1ccc(S(N)(=O)=O)cc1)C(=O)N2" and report it.
Reply | 0.43

====

# MEASURED TARGET: Protein kinase C gamma type (Homo sapiens);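 also: values are mean percent inhibition of PKC gamma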
# CONDITIONS USED: at 0.1 µM
inhibition listing for selected compounds.
Numeric only. Scale: %

Take a look at these entries with their results.
CCc1cccc(CC)c1/C=C/c1cncc(C(=O)NC)c1; 1.06
Fc1ccc(-c2c(-c3ccncc3)nc3n2CCS3)cc1; 1
CCc1ccc(Oc2nccc(-c3c(-c4ccc(F)cc4)ncn3C3CCNCC3)n2)cc1; -0.16

Ask | Query (compound): "Fc1ccc(-c2ncn(CCCN3CCOCC3)c2-c2ccncc2)cc1" ; field requested: inhibition
Reply | -1.84

Ask | I am curious: what inhibition value has been reported for "C[C@@H](Oc1cc(-n2cnc3ccc(OC4CCN(C)CC4)cc32)sc1C(N)=O)c1ccccc1Cl" ?
Reply | 0.71

====

# MEASURED TARGET: Cyclin-dependent kinase 1 (Homo sapiens);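 also: mean percent inhibition of the CDK1/cyclin B complex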
# CONDITIONS USED: at 1 µM
# inhibition values compiled below
Dear colleague, please return just the value in %, with no unit written.

// solved cases for inhibition follow
Fc1ccc(-c2nc3n(c2-c2ccncc2)CCS3)cc1; -3.55
CCS(=O)(=O)c1ccc(OC)c(Nc2ncc(-c3ccccc3Cl)o2)c1; 0.32
CCc1ccc(Oc2nccc(-c3c(-c4ccc(F)cc4)ncn3C3CCNCC3)n2)cc1; 2.02

Ask | Give the measured inhibition of "COc1cc2ncn(-c3cc(OCc4ccccc4C(F)(F)F)c(C(C)=O)s3)c2cc1OC" .
Reply | 2.22

Ask | Looking for the measured inhibition of "COc1cc2ncn(-c3cc(OCc4cccs4)c(C(N)=O)s3)c2cc1OC" , can you help?
Reply | -0.17

Ask | Fill blank: measured inhibition of the compound Nc1nccc(-c2c(-c3ccc(F)cc3)ncn2C2CCC(O)CC2)n1 (stereo not given) is ____.
Reply | 5.68

Ask | Give its inhibition value. Item: "Cc1ccc(C(=O)NC2CCC2)cc1-c1ccc(C(=O)NCC2CC2)cc1"
Reply | 1.39

====

inhibition: recorded values
# MEASURED TARGET: Death-associated protein kinase 1 (Homo sapiens) (UniProt P53355);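 also: reported figure is the mean inhibition of DAPK1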
# Sequence (P53355 whole entry, looked up): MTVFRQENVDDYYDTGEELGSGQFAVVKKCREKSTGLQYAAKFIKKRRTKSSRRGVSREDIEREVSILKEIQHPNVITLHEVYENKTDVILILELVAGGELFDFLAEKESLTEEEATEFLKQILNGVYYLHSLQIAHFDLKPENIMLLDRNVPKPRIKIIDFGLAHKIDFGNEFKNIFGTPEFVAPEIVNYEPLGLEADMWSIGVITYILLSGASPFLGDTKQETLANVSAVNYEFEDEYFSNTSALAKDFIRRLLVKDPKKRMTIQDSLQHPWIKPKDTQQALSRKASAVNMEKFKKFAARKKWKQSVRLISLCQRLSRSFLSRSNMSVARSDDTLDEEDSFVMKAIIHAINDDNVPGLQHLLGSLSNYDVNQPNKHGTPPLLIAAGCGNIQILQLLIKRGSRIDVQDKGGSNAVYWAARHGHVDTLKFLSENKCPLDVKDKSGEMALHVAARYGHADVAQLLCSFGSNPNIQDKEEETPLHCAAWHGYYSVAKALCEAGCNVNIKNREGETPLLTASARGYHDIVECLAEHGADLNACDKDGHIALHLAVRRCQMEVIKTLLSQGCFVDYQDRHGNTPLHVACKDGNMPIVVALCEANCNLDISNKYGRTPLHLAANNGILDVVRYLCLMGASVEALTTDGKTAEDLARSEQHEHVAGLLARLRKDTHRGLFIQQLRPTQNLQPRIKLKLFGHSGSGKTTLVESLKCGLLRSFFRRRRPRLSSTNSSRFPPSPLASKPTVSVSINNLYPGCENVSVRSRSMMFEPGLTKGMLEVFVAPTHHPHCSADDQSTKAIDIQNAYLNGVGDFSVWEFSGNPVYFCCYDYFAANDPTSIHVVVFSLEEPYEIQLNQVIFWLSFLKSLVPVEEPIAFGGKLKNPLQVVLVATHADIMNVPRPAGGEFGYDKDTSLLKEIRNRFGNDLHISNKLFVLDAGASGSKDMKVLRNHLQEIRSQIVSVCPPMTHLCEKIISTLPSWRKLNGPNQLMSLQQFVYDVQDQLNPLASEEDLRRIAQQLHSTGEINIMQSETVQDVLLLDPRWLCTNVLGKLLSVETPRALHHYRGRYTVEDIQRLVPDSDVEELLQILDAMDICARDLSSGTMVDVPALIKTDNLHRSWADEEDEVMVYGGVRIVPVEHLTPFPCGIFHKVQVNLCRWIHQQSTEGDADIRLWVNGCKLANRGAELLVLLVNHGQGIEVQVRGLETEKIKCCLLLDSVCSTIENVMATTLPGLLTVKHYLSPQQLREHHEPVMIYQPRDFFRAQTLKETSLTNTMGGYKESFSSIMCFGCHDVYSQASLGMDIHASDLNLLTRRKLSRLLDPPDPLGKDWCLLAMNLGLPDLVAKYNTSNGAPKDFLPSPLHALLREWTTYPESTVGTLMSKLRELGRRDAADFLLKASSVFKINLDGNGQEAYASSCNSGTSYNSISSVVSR
# CONDITIONS USED: at 0.1 µM
Enter your answer as a number in %; do not include the unit.

Some entries whose results are on file:
C/C(Nc1ccc(S(N)(=O)=O)cc1)=C1/C(=O)Nc2ccccc21; 1.47
CS(=O)(=O)CCNCc1cc(-c2cc3c(Nc4ccc(OCc5cccc(F)c5)c(Cl)c4)ncnc3s2)cs1; 2.74
Nc1nccc(-c2c(-c3ccc(F)cc3)ncn2C2CCC(O)CC2)n1 (stereo not given); -1.1
O=C1NC(=O)C(c2cccc(Cl)c2)=C1Nc1ccc(Cl)c(C(=O)O)c1; 3.48

Turning to the following compound.
Ask | Tell me the measured inhibition of "O=C(Nc1ccc(Oc2ccc3[nH]c(NC(=O)c4ccccc4)nc3c2)cc1)Nc1cc(C(F)(F)F)ccc1F" , please.
Reply | 4.99

====

inhibition reference
# MEASURED TARGET: Casein kinase II subunit alpha (Homo sapiens) (UniProt P68400);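 also: reported value is the mean CK2 inhibition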
# Sequence (P68400 whole entry, looked up): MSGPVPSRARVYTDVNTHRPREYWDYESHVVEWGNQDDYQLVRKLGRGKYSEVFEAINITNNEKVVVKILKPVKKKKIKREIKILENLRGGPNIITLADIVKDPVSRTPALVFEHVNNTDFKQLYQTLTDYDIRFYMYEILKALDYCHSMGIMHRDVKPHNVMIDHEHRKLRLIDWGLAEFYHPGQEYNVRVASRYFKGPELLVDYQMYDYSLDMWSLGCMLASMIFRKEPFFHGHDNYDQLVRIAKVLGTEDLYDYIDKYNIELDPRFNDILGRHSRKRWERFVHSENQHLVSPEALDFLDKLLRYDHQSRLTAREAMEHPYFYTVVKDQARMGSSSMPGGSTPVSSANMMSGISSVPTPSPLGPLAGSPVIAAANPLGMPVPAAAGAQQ
# CONDITIONS USED: at 1 µM
# value in %; strip the unit string

Solved cases below.
N#Cc1ccc(Oc2nccc(-c3c(-c4ccc(F)cc4)ncn3C3CCNCC3)n2)cc1; 4.89
O=C1Nc2ccc(I)cc2C1=Cc1cc(Br)c(O)c(Br)c1; 17.9
CS(=O)(=O)CCNCc1cc(-c2cc3c(Nc4ccc(OCc5cccc(F)c5)c(Cl)c4)ncnc3s2)cs1; 2.87
NCc1ccc(-n2c(-c3nonc3N)nc3cnccc32)cc1; 9.93

Now for the compound whose inhibition we want.
Ask | Please give the measured inhibition for this compound: "CN(c1ccc(NC(=O)Nc2c(Cl)cccc2Cl)cc1)c1ccnc(Nc2cccc(CS(C)(=O)=O)c2)n1"
Reply | 6.66

====

# MEASURED TARGET: Ribosomal protein S6 kinase alpha-4 (Homo sapiens);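 also: values are mean inhibition of MSK2, from GSK PKIS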
# CONDITIONS USED: at 0.1 µM
# key: entry, value: inhibition
Kindly answer with a numeric value in %, unit omitted.

CCc1ccc(Oc2nccc(-c3c(-c4ccc(F)cc4)ncn3C3CCNCC3)n2)cc1; 3.19

Ask | Find the recorded inhibition belonging to "O=C1Nc2ccccc2/C1=C/Nc1ccc(-n2cncn2)cc1" and report it.
Reply | 3.95

Ask | Sample "NS(=O)(=O)c1ccc(N/N=C2\C(=O)Nc3ccc(C(=O)NCCCn4ccnc4)cc32)cc1" — what was its inhibition?
Reply | 3.85

Ask | # query: inhibition of entry "O=C(Nc1n[nH]c2cc(-c3cc(F)ccc3F)ccc12)C1CC1"
Reply | 1.8

Ask | Find the recorded inhibition belonging to "NC(=O)Cc1ccccc1Oc1nccc(-c2c(-c3ccc(F)cc3)ncn2C2CCNCC2)n1" and report it.
Reply | -1.39

Ask | Any idea what its inhibition is? The compound is "COc1cccc(-n2cnc3c(N/N=C/c4ccncc4)ncnc32)c1"
Reply | 2.44

====

# Tested on: Mast/stem cell growth factor receptor Kit (Homo sapiens), P10721 [T670I]
# Sequence (P10721 whole entry T670I): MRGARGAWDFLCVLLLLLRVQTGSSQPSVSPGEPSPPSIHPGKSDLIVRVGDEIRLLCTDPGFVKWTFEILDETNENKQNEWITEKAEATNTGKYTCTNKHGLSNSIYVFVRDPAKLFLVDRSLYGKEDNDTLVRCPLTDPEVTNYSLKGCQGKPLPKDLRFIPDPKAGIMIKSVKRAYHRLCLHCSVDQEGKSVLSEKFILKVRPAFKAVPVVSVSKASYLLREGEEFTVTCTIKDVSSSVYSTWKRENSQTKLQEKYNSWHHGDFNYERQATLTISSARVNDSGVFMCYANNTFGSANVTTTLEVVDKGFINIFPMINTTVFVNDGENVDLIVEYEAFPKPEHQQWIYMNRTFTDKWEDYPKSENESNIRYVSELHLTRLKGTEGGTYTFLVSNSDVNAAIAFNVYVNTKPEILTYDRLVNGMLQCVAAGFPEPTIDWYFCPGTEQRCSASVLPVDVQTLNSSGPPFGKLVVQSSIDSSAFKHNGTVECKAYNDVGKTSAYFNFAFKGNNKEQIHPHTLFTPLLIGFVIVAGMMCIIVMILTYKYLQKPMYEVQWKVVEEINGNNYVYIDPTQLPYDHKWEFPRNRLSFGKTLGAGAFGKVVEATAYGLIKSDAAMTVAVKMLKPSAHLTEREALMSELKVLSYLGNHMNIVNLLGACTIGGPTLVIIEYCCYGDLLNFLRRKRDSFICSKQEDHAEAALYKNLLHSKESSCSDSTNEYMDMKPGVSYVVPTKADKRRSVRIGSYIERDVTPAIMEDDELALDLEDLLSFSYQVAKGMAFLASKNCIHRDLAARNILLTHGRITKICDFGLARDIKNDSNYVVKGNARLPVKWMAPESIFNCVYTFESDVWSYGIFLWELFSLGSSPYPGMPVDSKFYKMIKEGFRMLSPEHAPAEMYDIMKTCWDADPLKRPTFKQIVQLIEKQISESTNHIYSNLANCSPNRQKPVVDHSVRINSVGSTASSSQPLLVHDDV
# CONDITIONS USED: at 0.1 µM
EXPERIMENTAL ENDPOINT: inhibition (%)
Please state the figure in %; there is no need to write the unit.

Previously resolved entries follow.
NC(=O)c1cc(-c2ccc(F)cc2)cc(-c2ccncc2)c1N; 4.07
COc1cc2ncn(-c3cc(OCCc4ccccc4)c(C(N)=O)s3)c2cc1OC; 0.21
NS(=O)(=O)c1ccc(N/N=C2\C(=O)Nc3ccc(-c4cnco4)cc32)cc1; 1.64

Ask | Quick check: inhibition of "NS(=O)(=O)c1ccc(N/N=C2\C(=O)Nc3ccc(C(=O)NCCCn4ccnc4)cc32)cc1" ?
Reply | 3.5

Ask | Record request: inhibition value, item "C[C@@H](Oc1cc(-n2cnc3ccc(OC4CCN(C)CC4)cc32)sc1C(N)=O)c1ccccc1Cl"
Reply | 1.3

Ask | Item "CCc1cccc(CC)c1/C=C/c1cncc(C(=O)NC)c1" has what recorded inhibition?
Reply | 1.07

Ask | Given the molecule "CNC(=O)c1cncc(/C=C/c2c(C)cccc2C)c1" , what is its reported inhibition?
Reply | -0.72

Ask | Any idea what inhibition was measured for "COc1cc2ncn(-c3cc(OCc4cccs4)c(C(N)=O)s3)c2cc1OC" ?
Reply | 1.45

Ask | Please report the recorded inhibition for "c1ccc(-c2n[nH]cc2-c2ccnc(-c3ccc(OCCN4CCOCC4)cc3)c2)nc1" .
Reply | -3
